- Tested on: DU-4475
- assay.explanation: normalised viability (% of control), CellTiter-Blue; higher = more viable cells (about 100 = DMSO control)
- setup.conditions: incubation time: 72 h
quantity.measured: normalised viability (%)
Reply with just the number (in %).

Look up normalised viability for this molecule: Cc1[nH]c2ccccc2c1CCNCc1ccc(/C=C/C(=O)NO)cc1 [Panobinostat] (1000 nM) 4.66

More entries:
Entry COC(=O)c1ccc2c(c1)NC(=O)/C2=C(\Nc1ccc(N(C)C(=O)CN2CCN(C)CC2)cc1)c1ccccc1 [BIBF 1120] (10000 nM) has what normalised viability? 24.8

Param item: Cc1cc(Nc2cc(CN3CCOCC3)c3nc(C)c(Cc4ccc(Cl)cc4F)n3n2)n[nH]1 (10000 nM) 36.9

----------
- System: HCC1143
- assay.explanation: normalised viability (% of control), CellTiter-Blue; higher = more viable cells (about 100 = DMSO control)
- setup.conditions: 100 nM; incubation time: 72 h
We label by threshold. Values of normalised viability strictly beneath 90% are t. Values of 90% and up are f.

Some entries whose results are on file:
Field: below-cutoff. Rule: recorded normalised viability strictly less than 90%. Subject: N#Cc1ccc(COC[C@H]2O[C@@H](n3c(NCc4ccc(Cl)c(Cl)c4)nc4c(N)ncnc43)[C@H](O)[C@@H]2O)cc1 f

Same read-out for COc1cc2/c(=N/c3ccc(Br)cc3F)nc[nH]c2cc1OCC1CCN(C)CC1 ? f

// same read-out, input: c1ccc2c(CCNc3ccc(Nc4ccncc4)cc3)c[nH]c2c1 t

Turning to the following compound.
Report whether reported normalised viability is lower than 90% (strictly) for Nc1cc(C(F)(F)F)c(-c2cc(N3CCOCC3)nc(N3CCOCC3)n2)cn1 t

----------
- Tested on: HCC1937
- setup.conditions: 72 h
// reported EC50, CellTiter-Glo for each item listed

// known answers, use as guide
Which measured EC50, CellTiter-Glo value corresponds to N#Cc1ccc(COC[C@H]2O[C@@H](n3c(NCc4ccc(Cl)c(Cl)c4)nc4c(N)ncnc43)[C@H](O)[C@@H]2O)cc1 ? > 10 µM

Record: c1ccc2c(CCNc3ccc(Nc4ccncc4)cc3)c[nH]c2c1 [Serdemetan] > 10 µM

Continuing:
Entry Cc1ccc(NC(=O)c2ccc(CN3CCN(C)CC3)cc2)cc1Nc1nc(-c2cccnc2)cs1 [Masitinib] has what EC50, CellTiter-Glo? > 10 µM

----------
- Test system: DU-4475
- assay.explanation: drug sensitivity score (DSS), CellTiter-Glo (DSS (AUC-based score)); higher = stronger drug effect (viability inhibition or cytotoxicity); extreme values may be limits of the assay
- setup.conditions: incubation time: 72 h
quantity.measured: drug sensitivity score
Kindly provide the number alone.

Below, each entry is followed by its recorded drug sensitivity score result.
Can you share its drug sensitivity score? I mean this compound: NC(=O)c1ccc(I)c([N+](=O)[O-])c1 [Iniparib] 0

What do we get for CCOC(=O)CCNc1cc(N2CCc3ccccc3CC2)nc(-c2ccccn2)n1 [GSK-J4] ? 13.5

Continuing:
Recorded drug sensitivity score of CNC(=O)c1cccc(-c2ccc3c(N4CCOC[C@@H]4C)nc(N4CCOC[C@@H]4C)nc3n2)c1 [AZD2014] , please. 7.74

----------
- Tested on: CAL-85-1
- assay.explanation: drug sensitivity score (DSS), CellTiter-Glo (DSS (AUC-based score)); higher = stronger drug effect (viability inhibition or cytotoxicity); extreme values may be limits of the assay
- setup.conditions: incubation time: 72 h
quantity.measured: drug sensitivity score
The response must contain the number and no unit.

The cases that follow already have their drug sensitivity score on record.
Please report the recorded drug sensitivity score for COc1cc2/c(=N/c3ccc(Br)cc3F)nc[nH]c2cc1OCC1CCN(C)CC1 . 0

What about this compound? O=C(Nc1ccncc1)C(=O)c1cn(Cc2ccc(Cl)cc2)c2ccccc12 13

Turning to the following compound.
# lookup: drug sensitivity score of COc1cc2ncnc(Nc3ccc(F)c(Cl)c3)c2cc1OCCCN1CCOCC1 9.09

----------
- Test system: HCC1599
- assay.explanation: normalised response (% of control), CellTiter-Glo; higher = more viable cells (100 = DMSO, 0 = benzethonium chloride kill control)
- setup.conditions: incubation time: 72 h
quantity.measured: normalised response

As a guide, the following entries are already answered.
Fill blank: measured normalised response of the compound Nc1cc(C(F)(F)F)c(-c2cc(N3CCOCC3)nc(N3CCOCC3)n2)cn1 [Buparlisib] (10000 nM) is ____. 94.3%

Param item: S=P(N1CC1)(N1CC1)N1CC1 [Thio-TEPA] (50000 nM) 111%

Further cases:
Using the record for C=C1C[C@@H]2[C@H](CC[C@]3(C)C(=O)CC[C@@H]23)[C@@]2(C)C=CC(=O)C=C12 [Exemestane] (10000 nM) , report its normalised response. 107%

----------
- Tested on: DU-4475
- assay.explanation: normalised response (% of control), CellTiter-Glo; higher = more viable cells (100 = DMSO, 0 = benzethonium chloride kill control)
- setup.conditions: incubation time: 72 h
Quick list: normalised response per entry.
Your answer should be a plain number; it is taken to be in %.

// solved cases for normalised response follow
Missing value: normalised response, DU-4475, entry COc1cc(OC2CCN(C)CC2)ccc1Nc1ncc2c(n1)n(C1CCCC1)c(=O)n2C [AZ 3146] (10000 nM) . Fill in? 79.1

Consider next the molecule Nc1cc(C(F)(F)F)c(-c2cc(N3CCOCC3)nc(N3CCOCC3)n2)cn1 [Buparlisib] (10000 nM) in the same way. 80.2

New cases:
Entry O=C(Nc1ccncc1)C(=O)c1cn(Cc2ccc(Cl)cc2)c2ccccc12 [Indibulin] (10000 nM) , system DU-4475: what normalised response was measured? 79

----------
- System: MDA-MB-231
- assay.explanation: normalised viability (% of control), CellTiter-Blue; higher = more viable cells (about 100 = DMSO control)
- setup.conditions: 100 nM; incubation time: 72 h
Values of normalised viability strictly less than 90% map to true, and values of at least 90% map to false.

Find out if reported normalised viability for COc1cc2/c(=N/c3ccc(Br)cc3F)nc[nH]c2cc1OCC1CCN(C)CC1 [Vandetanib] is less than 90% false

Now the same for O=C(Nc1cccnc1)N1CCC(Cc2cccc(Oc3ccc(C(F)(F)F)cn3)c2)CC1 [PF-3845] false

Consider next the molecule c1ccc2c(CCNc3ccc(Nc4ccncc4)cc3)c[nH]c2c1 [Serdemetan] in the same way. true

Further cases:
Lab note: confirm whether the reported normalised viability for this molecule is below 90%, equality not counting. molecule: O=C(/C=C/c1cccc(S(=O)(=O)Nc2ccccc2)c1)NO [Belinostat] false

Also, CN(C)CCOc1ccc(/C(=C(/CCCl)c2ccccc2)c2ccccc2)cc1 [Toremifene] please. false

----------
- Tested on: MDA-MB-468
- assay.explanation: normalised response (% of control), CellTiter-Glo; higher = more viable cells (100 = DMSO, 0 = benzethonium chloride kill control)
- setup.conditions: incubation time: 72 h
quantity.measured: normalised response (%)
The figure you give is taken to be in %; do not add the unit.

Item under review: CNC(=O)c1cccc(-c2ccc3c(N4CCOC[C@@H]4C)nc(N4CCOC[C@@H]4C)nc3n2)c1 [AZD2014] (10 nM) . Reported normalised response? 104

Next: COc1cc2c(NC3CCN(C(C)C)CC3)nc(N3CCC(F)(F)CC3)nc2cc1OCCCN1CCCC1 [UNC0642] (10 nM) 89

Follow-up entry: CCn1c(-c2nonc2N)nc2cnc(Oc3cccc(NC(=O)c4ccc(OCCN5CCOCC5)cc4)c3)cc21 (1 nM) 95.6

Next entry: Cc1[nH]c2ccccc2c1CCNCc1ccc(/C=C/C(=O)NO)cc1 [Panobinostat] (0.1 nM) 94.4

What about CN(C)CCOc1ccc(/C(=C(/CCCl)c2ccccc2)c2ccccc2)cc1 [Toremifene] (10 nM) ? 103

Then Oc1ccc2c(c1)CC[C@H](c1ccccc1)[C@@H]2c1ccc(OCCN2CCCC2)cc1 [Lasofoxifene] (0.1 nM) ? 106

Also CNC(=O)c1cc(Oc2ccc(NC(=O)Nc3ccc(Cl)c(C(F)(F)F)c3)c(F)c2)ccn1 [Regorafenib] (10 nM) ? 97.9

----------
Known normalised response of a selection of compounds
- System: HCC1599
- assay.explanation: normalised response (% of control), CellTox Green; higher = less cell death (100 = DMSO, 0 = benzethonium chloride kill control)
- setup.conditions: incubation time: 72 h
Hi! Could you send only the number? It should be in %, unit omitted.

Name the reported normalised response value associated with the compound N#Cc1ccc(COC[C@H]2O[C@@H](n3c(NCc4ccc(Cl)c(Cl)c4)nc4c(N)ncnc43)[C@H](O)[C@@H]2O)cc1 (1000 nM) 102

Same question, COc1cc(OC2CCN(C)CC2)ccc1Nc1ncc2c(n1)n(C1CCCC1)c(=O)n2C [AZ 3146] (1000 nM) this time 92.5

Same read-out for CO[C@H]1C[C@@H]2CC[C@@H](C)[C@@](O)(O2)C(=O)C(=O)N2CCCC[C@H]2C(=O)O[C@H]([C@H](C)C[C@@H]2CC[C@@H](OP(C)(C)=O)[C@H](OC)C2)CC(=O)[C@H](C)/C=C(\C)[C@@H](O)[C@@H](OC)C(=O)[C@H](C)C[C@H](C)/C=C/C=C/C=C/1C [Ridaforolimus] (100 nM) ? 89.3
